The reported measurements were obtained from the supplement of paper PMC9112550.

Test system: Escherichia coli TOP10;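 also: peptides expressed intracellularly from a pBAD plasmid library in pooled LB shake-flask culture, induced with 0.3% L-arabinose, DNA abundance read by NGS, three biological replicates, DESeq2 with apeglm shrinkage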
Assay: shrunken log2 fold change of peptide-encoding DNA abundance (4.5 h post-induction vs induction); higher = less antimicrobial activity (less host growth inhibition)
Conditions: time post-induction: 4.5 h; library: site-saturation at positions 5, 18, 19, 20
Response key: 1 means shrunken log2 fold change >= 0.03; -1 means shrunken log2 fold change < 0.03.

Chain: RRIRMRPPRLPRPRPRPGTPPRP
Group: 1
--
Chain: RRIRRRPPRLPRPRPRPHSVPRP
Group: 1
--
Chain: RRIRIRPPRLPRPRPRPKWPPRP
Group: 1
--
Chain: RRIRARPPRLPRPRPRPQCMPRP
Group: 1
--
Chain: RRIRQRPPRLPRPRPRPVEYPRP
Group: -1
--
Chain: RRIRYRPPRLPRPRPRPWLLPRP
Group: -1
--
Chain: RRIRFRPPRLPRPRPRPNKKPRP
Group: -1

Now look at this entry.
**Query** shrunken log2 fold change >= 0.03 for `RRIRRRPPRLPRPRPRPDSHPRP` ?
**Result** -1
